- system tested: TLR8 (Homo sapiens)
- Construct: human HEK-Blue cells co-expressing a TLR7 or TLR8 gene
- Sequence (Q9NR97 27-1041): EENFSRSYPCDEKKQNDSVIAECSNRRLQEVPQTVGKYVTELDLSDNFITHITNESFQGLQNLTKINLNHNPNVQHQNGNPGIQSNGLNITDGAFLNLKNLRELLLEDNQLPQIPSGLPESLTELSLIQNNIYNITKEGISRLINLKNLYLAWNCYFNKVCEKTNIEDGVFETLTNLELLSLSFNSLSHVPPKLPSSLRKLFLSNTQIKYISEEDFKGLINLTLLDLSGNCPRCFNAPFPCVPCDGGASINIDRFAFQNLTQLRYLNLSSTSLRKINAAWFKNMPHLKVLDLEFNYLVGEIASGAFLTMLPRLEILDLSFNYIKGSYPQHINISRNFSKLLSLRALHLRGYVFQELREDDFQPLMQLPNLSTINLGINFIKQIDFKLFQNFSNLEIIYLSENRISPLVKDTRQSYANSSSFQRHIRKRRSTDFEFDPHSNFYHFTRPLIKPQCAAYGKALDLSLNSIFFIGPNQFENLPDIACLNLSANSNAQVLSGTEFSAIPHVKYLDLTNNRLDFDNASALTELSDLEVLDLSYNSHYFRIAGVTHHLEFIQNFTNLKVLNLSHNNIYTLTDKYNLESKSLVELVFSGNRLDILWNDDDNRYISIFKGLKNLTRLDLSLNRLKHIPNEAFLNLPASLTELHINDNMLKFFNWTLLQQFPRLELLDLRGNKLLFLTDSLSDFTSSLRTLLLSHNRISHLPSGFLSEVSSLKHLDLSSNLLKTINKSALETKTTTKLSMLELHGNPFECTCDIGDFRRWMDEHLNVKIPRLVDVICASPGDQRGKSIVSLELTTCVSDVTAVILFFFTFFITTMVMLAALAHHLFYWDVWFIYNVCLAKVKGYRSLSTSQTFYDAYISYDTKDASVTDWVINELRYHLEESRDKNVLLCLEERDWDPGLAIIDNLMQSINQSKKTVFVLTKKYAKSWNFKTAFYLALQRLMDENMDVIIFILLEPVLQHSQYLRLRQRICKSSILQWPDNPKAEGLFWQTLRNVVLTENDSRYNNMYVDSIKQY
- assay summary: In vitro human TLR8 binding reporter assay (HEK-Blue, NF-kB/AP1-inducible SEAP)
- Assay type: cell-based
- recorded conditions: activity range class, read-out: TLR8 Agonist EC50
Item-by-item account of EC50

Record excerpt, results attached:
COCC(C)n1cc2c(N)nc3cc(-c4cc[nH]n4)ccc3c2n1 (centres unmarked) [Example 336] | > 100 µM
Nc1nc2cc(-n3cccn3)ccc2c2cn(CCNC(=O)c3ccccc3)nc12 | 20 to 100 µM
Nc1nc2cc(-c3cc[nH]n3)ccc2c2cn(CCNC(=O)c3ccccc3)nc12 | > 100 µM
Nc1nc2cc(-c3cc[nH]n3)ccc2c2cn(CCN3Cc4ccc(F)cc4C3=O)nc12 | > 100 µM
Nc1nc2cc(-c3cc[nH]n3)ccc2c2nn(CCOCCO)cc12 | > 100 µM

Enquiry: Report value: EC50, system: TLR8 (Homo sapiens), compound: Nc1nc2cc(-c3cc[nH]n3)ccc2c2cn(CCNC(=O)c3cnco3)nc12
Return: > 100 µM

Enquiry: Report value: EC50, system: TLR8 (Homo sapiens), compound: Nc1nc2cc(-c3cc[nH]n3)ccc2c2cn(CCNC(=O)CO)nc12
Return: > 100 µM

Enquiry: Report value: EC50, system: TLR8 (Homo sapiens), compound: Nc1nc2cc(-c3cc[nH]n3)ccc2c2nn(CCO)cc12
Return: > 100 µM

Enquiry: Report value: EC50, system: TLR8 (Homo sapiens), compound: CC(C)(F)C(=O)N1CCOCC1Cn1cc2c(N)nc3cc(-c4ccn[nH]4)ccc3c2n1 (centres unmarked)
Return: > 100 µM

Enquiry: Report value: EC50, system: TLR8 (Homo sapiens), compound: Nc1nc2cc(-c3cc[nH]n3)ccc2c2cn(CCNC(=O)c3ccc(OCc4ccccc4)cn3)nc12
Return: 1 to 20 µM

Enquiry: Report value: EC50, system: TLR8 (Homo sapiens), compound: Nc1nc2cc(-c3cc[nH]n3)ccc2c2nn(C3CCCCC3O)cc12 (single isomer, unassigned) [Example 319]
Return: > 100 µM
